Reference for the values: paper PMC10928719

system: HIV-1 vector with IN mutant G140A/Q148K; experiment: Single-round infection assay, IN mutant G140A/Q148K; assay type: cell-based; settings: Human immunodeficiency virus 1, read-out: EC50 G140A/Q148K
measured parameter: pEC50
Note on pEC50: it is the negative log10 of concentration, concentration in mol/L.

Lookup: Give the measured pEC50 of `C[C@H]1CO[C@@H]2Cn3cc(C(=O)NCc4ccc(F)cc4F)c(=O)c(O)c3C(=O)N12` .
Found: 6.41

---

tested on: HIV-1 vector with IN mutant G140S/Q148H; assay: Single-round infection assay, IN mutant G140S/Q148H; type: cell-based; settings: Human immunodeficiency virus 1, read-out: EC50 G140S/Q148H
Catalogue of EC50 values
Only the number, expressed in nM, is required.

// below: answered molecules
INSERT INTO results (molecule, unit_annotation, val) VALUES
  ('COCC(C)n1ccn2cc(C(=O)NCc3ccc(F)cc3F)c(=O)c(O)c2c1=O (stereo not shown)', 'nM', 34.1),
  ('COC(CN1CCn2cc(C(=O)NCc3ccc(F)cc3F)c(=O)c(O)c2C1=O)OC', 'nM', 394),
  ('CC(C)=CCC/C(C)=C/Cn1ccn2cc(C(=O)NCc3ccc(F)cc3F)c(=O)c(O)c2c1=O', 'nM', 365),
  ('CC(C)CCCC(C)CCN1CCn2cc(C(=O)NCc3ccc(F)cc3F)c(=O)c(O)c2C1=O (stereo not shown)', 'nM', 109);

Please turn your attention to the following entry.
Lookup: Give the measured EC50 of `COC(Cn1ccn2cc(C(=O)NCc3ccc(F)cc3F)c(=O)c(O)c2c1=O)OC` .
Found: 1150

---

system: HIV-1 vector with IN mutant E138K/G140C/Q148R; experiment: Single-round infection assay, IN mutant E138K/G140C/Q148R; assay type: cell-based; conditions: Human immunodeficiency virus 1, read-out: EC50 E138K/G140C/Q148R
measured parameter: EC50 (nM)
Only the number, expressed in nM, is required.

Lookup: Recall the recorded EC50 for `C[C@H]1CO[C@@H]2Cn3cc(C(=O)NCc4ccc(F)cc4F)c(=O)c(O)c3C(=O)N12` with HIV-1 vector with IN mutant E138K/G140C/Q148R and state it.
Found: 134

---

system: human osteosarcoma (HOS) cells; test: Cellular cytotoxicity; format: cell-based; conditions: 50% reduction in the level of ATP in HOS cells, 48 h
measured parameter: CC50 (µM)
Only the number, expressed in µM, is required.

Lookup: Give the measured CC50 of `O=C(NCc1ccc(F)cc1F)c1cn2cc[nH]c(=O)c2c(O)c1=O` .
Found: 150

---

system: HIV-1 vector with IN mutant E138K/Q148K; experiment: Single-round infection assay, IN mutant E138K/Q148K; assay type: cell-based; settings: Human immunodeficiency virus 1, read-out: EC50 E138K/Q148K
measured parameter: pEC50
Note on pEC50: it is the negative log10 of concentration, concentration in mol/L.

Lookup: Recall the recorded pEC50 for C[C@H]1CO[C@@H]2Cn3cc(C(=O)NCc4ccc(F)cc4F)c(=O)c(O)c3C(=O)N12 [CAB, cabotegravir] with HIV-1 vector with IN mutant E138K/Q148K and state it.
Found: 6.11
